- target of assay: plasma BuChE (Homo sapiens, UniProt P06276)
- Construct: 1:450 diluted solution of a pooled human plasma; from tissue; host or cells: pooled human plasma
- Sequence (P06276 29-602): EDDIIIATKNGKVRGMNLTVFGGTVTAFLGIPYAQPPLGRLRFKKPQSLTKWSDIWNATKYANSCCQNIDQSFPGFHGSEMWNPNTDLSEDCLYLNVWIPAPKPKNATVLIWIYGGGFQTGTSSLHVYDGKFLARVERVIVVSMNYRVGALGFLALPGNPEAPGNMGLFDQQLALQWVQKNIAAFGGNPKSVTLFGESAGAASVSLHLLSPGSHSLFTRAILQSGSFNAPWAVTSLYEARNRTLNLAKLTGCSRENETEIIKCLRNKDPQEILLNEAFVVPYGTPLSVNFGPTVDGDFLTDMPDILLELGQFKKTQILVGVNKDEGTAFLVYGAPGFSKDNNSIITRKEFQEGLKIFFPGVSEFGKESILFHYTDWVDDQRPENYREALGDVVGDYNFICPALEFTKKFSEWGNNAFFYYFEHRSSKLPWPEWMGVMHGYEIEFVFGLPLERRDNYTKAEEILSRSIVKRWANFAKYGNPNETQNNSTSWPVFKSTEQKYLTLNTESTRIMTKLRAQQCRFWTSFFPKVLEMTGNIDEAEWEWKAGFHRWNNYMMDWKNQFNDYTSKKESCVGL
- assay info: Modified Ellman's colorimetric assay for BuChE (pooled human plasma) and kinetic studies
- Type: biochemical
- condition parameters: 200 µM compound; compared to control; mean of three experiments in triplicate; read-out: BuChE % IR (inhibition rate)
Please go through the items and note down their inhibition at 200 µM.

Query :: Look up inhibition at 200 µM: CCn1c(CNC(=O)COc2ccc(Cl)cc2)cc2ccccc21 [Compound C3]
Result :: 20.1%

Query :: Subsequent entry: O=C(Nc1ccc(CN2CCOCC2)cc1)c1ccc2c(c1)[nH]c(=O)n2CCc1ccccc1 [Compound B7]
Result :: 14.9%

Query :: Next molecule: CCN(CC)C(=O)c1cccc(Nc2ccc(-c3ccccc3OC)nn2)c1 [Compound D3]
Result :: 20.7%

Query :: How about this molecule: COc1ccc(Cl)cc1NC(=O)CCN1CCN(c2ccccc2C)CC1 [Compound B2]
Result :: 18.5%

Query :: Follow-up item: COCCNc1c(-c2cc3cc(C)ccc3[nH]c2=O)nc2ccc(Cl)cn12 [Compound C7]
Result :: 29.4%

Query :: Now this one: Cc1ccccc1OCC(=O)Oc1ccc2c(C)cc(=O)oc2c1 [Compound E6]
Result :: 13.2%

Query :: Can you check O=C(CSc1nnc(-c2cccc(F)c2)o1)N1CCC(Cc2ccccc2)CC1 [Compound E3] next?
Result :: 23%

Query :: Also CCc1ccccc1NC(=O)CSc1nnc(-c2cccnc2)n1CC [Compound E2] ?
Result :: 12%

Query :: Entry CCc1ccc2[nH]c3nc(SCCC(=O)N4CCCCCC4)nnc3c2c1 [Compound B1] please
Result :: 15%

Query :: Continue with Cc1cccc(N2CCN(CC(=O)Nc3ccc(C)c(F)c3)CC2)c1 [Compound D1]
Result :: 20%

Query :: Same again, this time with COc1cccc(OCC(=O)Nc2cc3oc4ccccc4c3cc2OC)c1 [Compound E4]
Result :: 11.7%

Query :: Do the same for Cc1c(C)n(C(=O)CSc2nnc(-c3ccccc3)o2)c2ccccc12 [Compound A4] please
Result :: 14.4%

Query :: Okay, and COc1ccc(NC(=O)Cn2nc(C(F)(F)F)c3c2CCCC3)c(OC)c1 [Compound D5] ?
Result :: 7.8%

Query :: // same read-out, input: COc1ccc(-c2cc(C(F)(F)F)nc(SCCC(=O)N3CCN(C)CC3)n2)cc1 [Compound D6]
Result :: 9.3%

Query :: For O=C(NC1CCCC1)c1ccc(CN2CCN(Cc3ccccc3)CC2)cc1 [Compound A2] then?
Result :: > 50%

Query :: Please do the same for Cc1onc(-c2ccccc2Cl)c1C(=O)N1CCN(Cc2ccc3c(c2)OCO3)CC1 [Compound E7] as well.
Result :: 37.5%

###

Provide the recorded inhibition at 200 µM for the entries that follow.
- target of assay: recombinant human AChE (Homo sapiens)
- Construct: purchased Sigma C1682
- Sequence (P22303 32-614): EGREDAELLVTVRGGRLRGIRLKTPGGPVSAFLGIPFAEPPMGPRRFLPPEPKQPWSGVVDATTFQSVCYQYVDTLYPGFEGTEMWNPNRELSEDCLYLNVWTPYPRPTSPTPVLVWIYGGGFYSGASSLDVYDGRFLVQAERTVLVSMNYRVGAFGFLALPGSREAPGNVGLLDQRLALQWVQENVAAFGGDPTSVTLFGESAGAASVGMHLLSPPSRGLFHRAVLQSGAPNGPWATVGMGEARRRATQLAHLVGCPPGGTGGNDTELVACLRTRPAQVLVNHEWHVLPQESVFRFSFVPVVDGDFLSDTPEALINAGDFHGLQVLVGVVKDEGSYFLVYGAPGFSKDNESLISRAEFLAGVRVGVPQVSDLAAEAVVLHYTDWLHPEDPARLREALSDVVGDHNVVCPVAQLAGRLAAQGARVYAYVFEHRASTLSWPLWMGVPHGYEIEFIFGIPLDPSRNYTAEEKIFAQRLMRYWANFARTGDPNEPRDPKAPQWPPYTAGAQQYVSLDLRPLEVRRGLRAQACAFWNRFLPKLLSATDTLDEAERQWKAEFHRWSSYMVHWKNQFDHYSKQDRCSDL
- assay info: Modified Ellman's colorimetric assay for AChE and kinetic studies
- Format: biochemical
- condition parameters: 200 µM compound; compared to control; mean of three experiments in triplicate; read-out: AChE % IR (inhibition rate)
Just the number please, in %, no unit attached.

Query :: Fill in the blank: the reported inhibition at 200 µM of COc1ccc(-c2nnc(-c3cc4c(ccc5ccccc54)oc3=O)o2)cc1 is ____.
Result :: 33.1

Query :: Entry COc1ccc(Cl)cc1NC(=O)CCN1CCN(c2ccccc2C)CC1 please
Result :: 0

Query :: Request: CCc1ccc2[nH]c3nc(SCCC(=O)N4CCCCCC4)nnc3c2c1
Result :: 9

All values here come from paper PMC5701137.
